study-target: PfDHODH (Phe158–Ser569) (Plasmodium falciparum, UniProt Q08210)
Construct: enzyme activity determination of PfDHODH (Phe158–Ser569) and hDHODH (Met30–Arg396); made in house
Sequence (Q08210 158-569): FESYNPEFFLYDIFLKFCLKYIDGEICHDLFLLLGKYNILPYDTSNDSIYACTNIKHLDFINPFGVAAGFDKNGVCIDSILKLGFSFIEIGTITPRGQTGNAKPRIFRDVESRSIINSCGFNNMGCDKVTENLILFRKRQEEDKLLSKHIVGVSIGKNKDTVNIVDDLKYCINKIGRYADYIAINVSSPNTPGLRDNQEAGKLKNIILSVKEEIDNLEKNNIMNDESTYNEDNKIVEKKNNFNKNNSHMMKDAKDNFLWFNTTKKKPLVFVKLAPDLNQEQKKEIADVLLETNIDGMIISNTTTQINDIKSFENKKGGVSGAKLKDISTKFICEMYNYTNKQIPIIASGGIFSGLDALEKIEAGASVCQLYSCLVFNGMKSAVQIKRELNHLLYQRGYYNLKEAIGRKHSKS
test-method-notes: In vitro enzyme assay, PfDHODH (DCIP reduction)
Type: biochemical
applied-conditions: in vitro enzyme assay; read-out: IC50 (μM) PfDHODH
Label criterion met when IC50 is strictly below 4 µM; at or above that, label criterion not met.

1) CCCNC(=O)C1=C(Nc2ccc3ccccc3c2)OCC1=O [Compound 16]
criterion not met
2) CNC(=O)C1=C(Nc2ccc3ccccc3c2)OCC1=O [Compound 14]
criterion not met
3) NN1CN(c2ccc3ccccc3c2)C2=C(C(=O)CO2)C1=O [Compound 26]
criterion met
4) NNC(=O)C1=C(Nc2ccc3ccccc3c2)OCC1=O [Compound 20]
criterion met
5) O=C(O)C1=C(Nc2ccc3ccccc3c2)OCC1=O [Compound 11]
criterion met
6) CCNC(=O)C1=C(Nc2ccc3ccccc3c2)OCC1=O [Compound 15]
criterion not met
7) CN1CN(c2ccc3ccccc3c2)C2=C(C(=O)CO2)C1=O [Compound 22]
criterion not met
8) O=C1COC(Nc2ccc3ccccc3c2)=C1C(=O)NC1CC1 [Compound 18]
criterion not met
9) O=C1COC(Nc2ccc3ccccc3c2)=C1C(=O)NCC1CC1 [Compound 19]
criterion not met
